Origin of the recorded values: patent US20210363269A1

Target: T1, human SIRPγ isoform 1 (human, UniProt Q9P1W8 29-147)
T1 construct: also called SIRPg; sirpg
T1 sequence (Q9P1W8 29-147 limits assumed): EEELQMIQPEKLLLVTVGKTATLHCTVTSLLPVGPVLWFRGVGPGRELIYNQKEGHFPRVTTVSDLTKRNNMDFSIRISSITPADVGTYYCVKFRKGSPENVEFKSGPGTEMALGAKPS
Experiment: SPR, Langmuir fit
Listed here: items and their measured koff.
Hi! Could you send only the number? It should be in s⁻¹, unit omitted.

Below: 2 binders and their reported koff.
S71 (scFv, V domains shown, also called clone 71) VH: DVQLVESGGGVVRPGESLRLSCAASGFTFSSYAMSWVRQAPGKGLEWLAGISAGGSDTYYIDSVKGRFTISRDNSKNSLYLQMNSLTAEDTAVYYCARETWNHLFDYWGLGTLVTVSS VL: ALTQPASVSANPGETVKITCSGGGYYSTYYGWYQQKSPGSAPVTVIHSDDKRPSDIPSRFSGSASGSAATLTITGVRVEDEAVYYCAGYDARTYINTFGAGTTLTVL : 0.000316
S24 (scFv, V domains shown, also called clone 24) VH: DVQLVESGGGVVRPGESLRLSCAASGFTFSSNAMSWVRQAPGKGLEWLAGISAGGSDTYYPASVKGRFTISRDNPKNTLYLQMNTLTAEDTAVYYCARETWNHLFDYWGLGTLVTVSS VL: ALTQPASVSANPGETVKIACSGGSYYSYYYGWYQQKSPGSALVTVIYSDDKRPSGIPSRFSGSASGSTATLTITGVRAEDEAVYYCGGYDYSSYTNDFGAGTTLTVL : 0.000197

Could you now look at the following binder, please?
*Q* Which koff reading was recorded for the binder S56 (scFv, V domains shown, also called clone 56) VH: DVQLVESGGGVVRPGESLRLSCAASGFTFSSYAMSWVRQAPGKGLEWLAGISAGGSDTYYIDSVKGRFTISRDNSKNSLYLQVNSLTAEDTAVYYCARETWNHLFDYWGLGTLVTVSS VL: ALTQPASVSANPGETVKITCSGGGYYSTYYGWYQQKSPGSAPVTVIHSDDKRPSDIPSRFSGSASGSAATLTITGVRVEDEAVYYCAGYDGRTYINTFGAGTTLTVL ?
*A* 0.000215
